# target or system: T1, human interleukin 1 receptor accessory protein, membrane-bound form on cells (human, UniProt Q9NPH3 21-570)
# T1 sequence: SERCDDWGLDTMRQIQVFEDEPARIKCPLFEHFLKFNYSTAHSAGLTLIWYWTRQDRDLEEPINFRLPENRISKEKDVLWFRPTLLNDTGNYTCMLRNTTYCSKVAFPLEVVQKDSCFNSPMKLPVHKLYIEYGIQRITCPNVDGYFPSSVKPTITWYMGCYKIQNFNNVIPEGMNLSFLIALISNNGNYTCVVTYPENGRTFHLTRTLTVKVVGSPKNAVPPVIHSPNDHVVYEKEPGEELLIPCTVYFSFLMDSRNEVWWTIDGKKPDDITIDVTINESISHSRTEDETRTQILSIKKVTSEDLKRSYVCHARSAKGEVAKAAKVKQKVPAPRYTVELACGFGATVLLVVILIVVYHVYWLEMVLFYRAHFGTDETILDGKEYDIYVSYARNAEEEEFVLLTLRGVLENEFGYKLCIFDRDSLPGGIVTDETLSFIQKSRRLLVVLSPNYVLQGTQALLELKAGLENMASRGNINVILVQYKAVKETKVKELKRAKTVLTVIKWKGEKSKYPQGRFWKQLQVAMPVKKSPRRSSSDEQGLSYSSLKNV
# test: cell-based or functional assay
outcome measure: IC50 of inhibition of IL-1β-induced NF-κB signaling, HEK-Blue IL-1β cells

The binder identified as anti-IL1-RAP antibody clone 54.15B5 (antibody, V domains shown, Mouse monoclonal antibody) VH: KWSWWSLGGGLAKPGGSLKLSCTASGFTFTSYVMSWVRQSPEKRLEWVAEISRGGSHTYYSDTVTGRFTISRDNANNALYLEMSSVRSADTAMYFCTRAYGNSEMDFWGQGTSVTVSS VL: QIVLTQSPAIMSASPGEKVTMTCSASSSISYIHWYRQKPGTSPKRWIYDTSNLASGVPARFSGSGSGTSYSLTIINMEAEDAATYYCHQRTYYPLTFGGGTRLELK registered its IC50 of inhibition of IL-1β-induced NF-κB signaling, HEK-Blue IL-1β cells at 0.29 µg/mL
